Tested on: NCI-H322M lung
Assay: NCI-60 one-dose screen, 48 h
Settings: 10 µM unless noted
Description: Growth inhibition of the NCI-H322M human Non-Small Cell Lung tumor cell line is measured as a screen for anti-cancer activity. Cells are grown in 96 well plates and exposed to the test compound for 48 hours. Compounds are tested at a single concentration, which is 10^-5 M for most compounds. The reported endpoint is percent growth (GI% or GIPRCNT), where numbers from 0 - 100% represent growth inhibition, and numbers from -100% - 0 represent cell death. […]
Compounds without any hit were thinned out: in the full panel of roughly 83,000, 20% have a hit. Activity calls are given as the source filed them. The calls were made as follows: active = growth percent below 10; inactive = the rest.
Respond using exactly one of the listed classes: active, inactive

In: Tell me the recorded outcome of this test for Fc1cc(-c2cnc3nonc3n2)c(Cl)cc1Cl .
Out: inactive

In: Look up the recorded call for Clc1cccc(CNc2c3ccccc3nc3ccccc23)c1 in this test.
Out: inactive

In: What outcome does the record of this test show for O=C1c2cccc3cccc(c23)C(=O)N1CCCCCCCCCCN1C(=O)c2cccc3cccc(c23)C1=O ?
Out: inactive

In: What did this assay record as the result for CN(C)CCNC(=O)n1cc(-c2ccncc2)c(-c2cc(O)cc(Cl)c2)n1 ?
Out: inactive

In: Short answer needed: outcome of this test for Nc1cc(C(=O)O)cc(C(=O)O)c1 ?
Out: inactive

In: Please indicate how the test categorized CCCCCCCOc1cccc(/C=C2\N=C3SCCCN3C2=O)c1 .
Out: inactive

In: Outcome logged for O=C1/C=C/[C@@H](O)[C@@H]2C[C@@H](O)C[C@H]2/C=C/CCC[C@H]([C@@H](O)CO)O1 in this assay:
Out: inactive

In: I'd appreciate the recorded outcome for COc1cc(OC)c2sc(-c3ccc(-n4cncc4-c4ccc(OC)c(N)c4)cc3)nc2c1 from this test.
Out: inactive

In: Hey, what did the test say about c1ccc(-c2ccc(-c3ccccc3)[nH]2)cc1 ?
Out: inactive

In: Record request — test call for ClCc1c(Cl)c(Cl)c(Cl)c(CCl)c1Cl
Out: inactive

In: Per the assay record, what outcome was assigned to CS(=O)(=O)c1ccc(Cl)c([N+](=O)[O-])c1 ?
Out: inactive

In: Could you check what this test reported for CC(C)[C@@]12C[C@@H](OC(=O)C3CO3)[C@@](C)(O1)[C@@H]1CC[C@@H](C)[C@H]1[C@@H]2OC(=O)/C=C/c1ccccc1 (some centres not stated) ?
Out: inactive

In: # outcome recorded in this test, key = CCN(CC)CCNC(=O)n1cc(-c2ccncc2)c(-c2cc(Cl)cc(OC)c2)n1
Out: inactive

In: Given c1csc(-c2cnc3nonc3n2)c1 , state the outcome it received in this test.
Out: inactive

In: Field: outcome | Entry: CCCCCCCCCCCCCCCC1=NCCN1
Out: inactive

In: Would you mind telling me which call this test gave COc1ccc(-c2ccc(-c3ccc(C(=N)N)s3)s2)cc1 ?
Out: active

In: State the result this test recorded for CS(=O)(=O)c1ccc(C(=O)N/N=C/c2cccc3ccccc23)cc1 .
Out: inactive

In: Dear colleague, could you share the recorded outcome for O=C(/C=C/c1ccccc1Br)c1cccc(OCCCCOc2cccc(C(=O)/C=C/c3ccccc3Br)c2)c1 when you have a moment?
Out: inactive

In: Can you look up the reported call for COc1cc2ncnc(Nc3ccc(S(=O)(=O)Nc4cc(C)on4)cc3)c2cc1OCCCN1CCN(c2ccc([N+](=O)[O-])cc2)CC1 for me?
Out: inactive

In: Which result was noted for this compound in the test: COc1ccccc1-[n+]1cc(-c2ccc(-c3ccccc3)cc2)n2c1CCCCC2
Out: inactive

In: Please share the test call associated with c1cn2cc(-c3ccc4ncn(C5CCCCC5)c4c3)nc(-c3ccc4c(c3)ncn4C3CCCCC3)c2n1 .
Out: active

In: Tell me the assay call for CCCCOc1nc2ccccc2cc1/C=C/c1cc(/C=C/c2cc3ccccc3nc2OCCCC)n(-c2ccccc2)n1 please.
Out: inactive

In: Just curious, what result did CC(=O)c1ccc(Br)c([N+](=O)[O-])c1 get here?
Out: inactive

In: Hi team, can someone confirm the assay call for Cn1cnc([N+](=O)[O-])c1S(=O)(=O)Oc1ccccc1 ?
Out: inactive

In: Give the logged outcome of this assay for the following compound: O=C(/C=C/c1ccccc1)c1c[nH]c2ccccc2c1=O
Out: active

In: For O=c1oc2ccccc2cc1-c1cc(-c2ccc(-c3cc(-c4cc5ccccc5oc4=O)nc(-c4cc5ccccc5oc4=O)c3)cc2)cc(-c2cc3ccccc3oc2=O)n1 , which call appears in the assay record?
Out: inactive

In: // outcome(item) with item = Nc1c(Br)cc2c(c1Br)Cc1cc(Cl)ccc1-2
Out: inactive

In: What did this assay record as the result for Cc1ccccc1NC(=O)c1sc2nc3c(cc2c1N)C(=O)CCC3 ?
Out: inactive

In: Which outcome was entered for the compound O=C(CC(=O)C(F)(F)C(F)(F)C(F)(F)F)c1cc2ccccc2o1 in this test?
Out: inactive

In: What classification did O=[N+]([O-])c1ccc(N/N=C\c2ccc(O)cc2O)nc1 end up with in this test?
Out: inactive

In: For c1coc(CNc2c3ccccc3nc3ccccc23)c1 , which call appears in the assay record?
Out: inactive

In: Record request — test call for CNC(=O)OC1C(O[C@H]2C[C@H]3[C@@H]4CC=C5C[C@@H](O)CC[C@]5(C)[C@H]4CC[C@]3(C)[C@H]2[C@H](C)C(=O)CCC(C)C)OCC(O)C1OC1OCC(O)C(O)C1OC(=O)c1ccc(OC)cc1 (some centres not stated)
Out: inactive

In: What did this assay record as the result for CCN(CC)c1ccc(/C=C2/NC(=O)NC2=O)cc1 ?
Out: inactive

In: # lookup: test call for O=C(Nc1ccncc1)C(=O)c1cn(S(=O)(=O)c2cccc(Cl)c2F)c2ccccc12
Out: inactive

In: Lab log entry: CCC(=O)OCc1ccc(OC)cc1 — outcome as called in the assay?
Out: inactive

In: Test call for this compound, please: COc1ccccc1/C=N\Nc1ccc([N+](=O)[O-])cn1
Out: inactive

In: Give the logged outcome of this assay for the following compound: CCOC(=O)C1=C(C(=O)OCC)N(c2cc(OC)c(OC)c(OC)c2)C(N)=C(C#N)C1c1cc(=O)[nH]c2ccccc12 (configuration not stated)
Out: inactive

In: Check the results log: what was the call for O=S(=O)(Cc1ccc(Cl)cc1Cl)c1ccc(Cl)cc1 ?
Out: inactive

In: Give the logged outcome of this assay for the following compound: N/N=C(\C(=N\N)c1ccccc1)c1ccccc1
Out: inactive

In: Record lookup: outcome of this test for NC(N)=NC1CCCCC1 ?
Out: inactive

In: I would be grateful if you could indicate the recorded call for O=C1/C(=C/c2ccccc2)SC(=Nc2ccccc2)N1Nc1ccccc1 .
Out: inactive

In: Given COc1ccccc1/C=C/C(=O)CCC(=O)O , state the outcome it received in this test.
Out: inactive
